From: ChEMBL document CHEMBL1201862

Kindly supply the reported GI50 values for the records listed here.
- Test system: SNB-19
- protocol description: NCI tumour cell line growth inhibition, 48 h
The source made the active and inactive calls. Rule as the data show it: active = GI50 up to about 1.1 µM and inactive = higher.

N=C(NC(=N)Nc1ccc(S(=O)(=O)Nc2cnc3ccccc3n2)cc1)Nc1ccc(Br)cc1; > 100 µM (inactive)
[N-]=[N+]=N/C1=C/CCCCC(=O)C1; > 100 µM (inactive)
CCC/C(Cl)=N/OC(=O)Nc1cc(C(F)(F)F)ccc1OC; 17.6 µM (inactive)
O=C(O)Cc1cccc2c(=O)cc(-c3ccccc3)oc12; > 250 µM (inactive)

--- query ---
// query Supply reported GI50 belonging to this compound: CC(=O)Oc1cc2c[n+](C)c3c4cc(OC(C)=O)c(OC(C)=O)cc4ccc3c2cc1OC(C)=O
// result 2.3 µM (inactive)
